Entry source: patent US20250136595A1

# Tested target: Ba/F3 ERBB2 YVMA (Homo sapiens, UniProt P04626, DUP772-775, cells depend on it)
# Sequence (P04626 with tags, fused parts or gaps DUP772-775): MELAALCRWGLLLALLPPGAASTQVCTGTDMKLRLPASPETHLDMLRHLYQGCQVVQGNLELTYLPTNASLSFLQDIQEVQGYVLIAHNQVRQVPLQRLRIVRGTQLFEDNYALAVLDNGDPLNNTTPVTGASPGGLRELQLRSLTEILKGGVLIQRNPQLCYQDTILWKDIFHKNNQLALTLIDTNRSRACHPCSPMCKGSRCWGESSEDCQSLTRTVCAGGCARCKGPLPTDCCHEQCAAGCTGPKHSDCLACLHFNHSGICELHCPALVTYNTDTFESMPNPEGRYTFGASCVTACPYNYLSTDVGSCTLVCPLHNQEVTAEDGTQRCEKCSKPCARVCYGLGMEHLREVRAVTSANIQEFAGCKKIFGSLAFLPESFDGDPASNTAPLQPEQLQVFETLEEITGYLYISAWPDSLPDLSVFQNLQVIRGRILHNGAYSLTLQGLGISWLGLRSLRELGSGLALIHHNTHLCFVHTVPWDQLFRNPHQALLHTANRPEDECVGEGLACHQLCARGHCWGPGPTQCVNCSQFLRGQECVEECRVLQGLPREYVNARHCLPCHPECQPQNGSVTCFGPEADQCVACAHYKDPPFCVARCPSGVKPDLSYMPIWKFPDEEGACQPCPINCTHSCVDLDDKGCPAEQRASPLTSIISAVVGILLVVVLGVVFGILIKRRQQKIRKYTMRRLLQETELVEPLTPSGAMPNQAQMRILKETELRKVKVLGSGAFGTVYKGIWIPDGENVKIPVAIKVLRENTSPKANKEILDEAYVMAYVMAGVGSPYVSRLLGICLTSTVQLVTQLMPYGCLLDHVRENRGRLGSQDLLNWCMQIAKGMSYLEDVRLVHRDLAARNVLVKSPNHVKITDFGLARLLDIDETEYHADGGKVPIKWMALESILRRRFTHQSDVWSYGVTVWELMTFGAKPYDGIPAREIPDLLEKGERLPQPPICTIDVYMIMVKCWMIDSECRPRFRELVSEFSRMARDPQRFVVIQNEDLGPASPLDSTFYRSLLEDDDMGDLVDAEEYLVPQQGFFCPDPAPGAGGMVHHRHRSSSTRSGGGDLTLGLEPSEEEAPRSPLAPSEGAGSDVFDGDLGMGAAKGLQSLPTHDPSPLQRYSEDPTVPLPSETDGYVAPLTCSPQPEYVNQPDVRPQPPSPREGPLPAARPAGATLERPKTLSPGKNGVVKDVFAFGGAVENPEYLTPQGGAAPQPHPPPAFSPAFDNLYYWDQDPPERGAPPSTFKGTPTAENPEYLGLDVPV
# Experimental protocol: Cell viability assay (CellTiter Glo) in Ba/F3 cells engineered to express ERBB2 YVMA
# Assay type: cell-based, mouse
# Condition info: Ba/F3 cells expressing human ERBB2 YVMA mutant, 72 hours, % viability, read-out: Ba/F3 ERBB2 YVMA IC50
Output class 1 for records whose GI50 is lower than 0.02 µM, class 0 for records at or above 0.02 µM.

Smiles repr	Assigned label
C=CC(=O)N1C2CCC1CN(c1ccc3ncnc(Nc4ccc(Oc5ccn6ncnc6c5)c(C)c4)c3n1)C2	class 1
C=CC(=O)N1CCN(c2ccc3ncnc(Nc4ccc(Cc5ccn6ncnc6c5)c(C)c4)c3n2)C[C@H]1C	class 1
CC#CC(=O)N1CCN(c2ccc3ncnc(Nc4ccc(Oc5ccc6c(c5)ncn6C)c(C)c4)c3n2)C[C@H]1C	class 1
C=CC(=O)N1CCN(c2ccc3ncnc(Nc4ccc(Oc5ccc(C)nc5)c(C)c4)c3n2)CC1	class 1
CC#CC(=O)N1CCN(c2ccc3ncnc(Nc4ccc(Oc5ccn6ncnc6c5)c(C)c4)c3n2)C[C@@H]1C	class 0
C=CC(=O)N1CCN(c2cc3c(Nc4ccc(Cc5ccc6c(c5)ncn6C)c(C)c4)ncnc3cn2)CC1	class 1
C=CC(=O)N1CCN(c2ccc3ncnc(Nc4ccc(Cc5ccc6c(c5)ncn6C)c(C)c4)c3c2)C[C@H]1C	class 0

###

# Tested target: phosphorylated EGFR (pEGFR) (Homo sapiens)
# Construct: performed to measure phosphorylated EGFR levels using A431 cells; endogenous in cells
# Sequence (P00533 25-1210): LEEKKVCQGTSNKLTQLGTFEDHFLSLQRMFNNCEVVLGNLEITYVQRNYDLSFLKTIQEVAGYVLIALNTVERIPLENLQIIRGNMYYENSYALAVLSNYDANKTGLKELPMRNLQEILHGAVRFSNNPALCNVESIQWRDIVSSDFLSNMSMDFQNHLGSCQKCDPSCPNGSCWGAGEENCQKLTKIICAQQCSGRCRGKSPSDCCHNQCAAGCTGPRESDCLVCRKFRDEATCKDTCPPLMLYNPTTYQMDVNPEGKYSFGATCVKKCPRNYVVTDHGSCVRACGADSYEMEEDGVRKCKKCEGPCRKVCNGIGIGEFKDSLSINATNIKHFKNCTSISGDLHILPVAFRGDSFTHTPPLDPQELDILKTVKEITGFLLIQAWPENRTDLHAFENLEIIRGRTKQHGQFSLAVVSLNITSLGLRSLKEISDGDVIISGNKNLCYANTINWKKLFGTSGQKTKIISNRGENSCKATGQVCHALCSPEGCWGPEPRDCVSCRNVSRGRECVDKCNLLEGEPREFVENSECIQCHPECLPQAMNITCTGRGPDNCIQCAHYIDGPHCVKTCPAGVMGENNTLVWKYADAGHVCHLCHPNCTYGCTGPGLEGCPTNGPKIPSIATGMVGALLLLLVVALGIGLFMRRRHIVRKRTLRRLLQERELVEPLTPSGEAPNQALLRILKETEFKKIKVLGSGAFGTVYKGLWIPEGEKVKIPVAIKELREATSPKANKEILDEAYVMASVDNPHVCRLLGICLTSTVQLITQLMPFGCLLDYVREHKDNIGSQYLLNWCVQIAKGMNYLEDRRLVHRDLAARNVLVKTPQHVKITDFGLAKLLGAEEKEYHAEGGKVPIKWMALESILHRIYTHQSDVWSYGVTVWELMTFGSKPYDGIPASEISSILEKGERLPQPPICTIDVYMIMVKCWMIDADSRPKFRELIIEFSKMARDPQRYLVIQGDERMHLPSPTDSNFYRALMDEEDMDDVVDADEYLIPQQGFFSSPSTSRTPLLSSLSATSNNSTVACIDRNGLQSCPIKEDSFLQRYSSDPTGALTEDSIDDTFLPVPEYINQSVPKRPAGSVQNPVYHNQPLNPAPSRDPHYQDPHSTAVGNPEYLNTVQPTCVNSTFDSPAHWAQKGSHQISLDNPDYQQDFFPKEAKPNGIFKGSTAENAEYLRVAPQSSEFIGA
# Experimental protocol: Detection of phosphorylated EGFR (pEGFR) in EGF-stimulated A431 cells (AlphaLISA)
# Condition info: A431 cells (10% FBS), 4 hours incubation, EGF 30 ng/mL for 10 minutes
Measurement label: IC50 (µM)

Smiles repr	Measurement label	Unit name	Result value
C=CC(=O)N1CC2CCC(C1)N2c1ccc2ncnc(Nc3ccc(Cc4ccn5ncnc5c4)c(C)c3)c2n1	IC50	µM	1.8
C=CC(=O)N1CCN(c2ccc3ncnc(Nc4ccc(Cc5ccc6c(c5)ncn6C)c(C)c4)c3n2)CC1	IC50	µM	2.09
C=CC(=O)N1C2CCC1CN(c1ccc3ncnc(Nc4ccc(Oc5ccc6c(c5)ncn6C)c(C)c4)c3n1)C2	IC50	µM	1.03
C=CC(=O)N1CCN(c2ccc3ncnc(Nc4ccc(Oc5ccc6c(c5)ncn6C)c(C)c4)c3n2)C[C@@H]1C	IC50	µM	2.44
C=CC(=O)N1CCN(c2cc3c(Nc4ccc(Cc5ccc6c(c5)ncn6C)c(C)c4)ncnc3cn2)[C@@H](C)C1	IC50	µM	3.18
C=CC(=O)N1CCN(c2ncc3ncnc(Nc4ccc(Oc5ccc6c(c5)ncn6C)c(C)c4)c3n2)C[C@H]1C	IC50	µM	2.88
CC#CC(=O)N1CC2CCC(C1)N2c1ccc2ncnc(Nc3ccc(Oc4ccn5ncnc5c4)c(C)c3)c2n1	IC50	µM	2.35

###

# Tested target: Ba/F3 ERBB2 YVMA (Homo sapiens, UniProt P04626, DUP772-775, cells depend on it)
# Experimental protocol: Cell viability assay (CellTiter Glo) in Ba/F3 cells engineered to express ERBB2 YVMA
# Type: cell-based, mouse
# Condition info: Ba/F3 cells expressing human ERBB2 YVMA mutant, 72 hours, % viability, read-out: Ba/F3 ERBB2 YVMA IC50
# Method: Cells were treated with compounds, and cell viability was measured as a metric of kinase inhibition. The Ba/F3 cell line is IL-3-dependent mouse cell line derived from the C3H mouse strain. […] Similarly, Ba/F3 cell lines engineered to express EGFR, ERBB2, or ERBB2 mutants were grown, harvested, counted and seeded at 3000 cells per well in 96-well plates for the data sets shown in Tables B3-B4. […]
Reported values of log10 GI50 for individual entries
Measurement label: log10 GI50 (log10 of the value in nM)

Molecule	log10 GI50
C=CC(=O)N1CCN(c2ncc3ncnc(Nc4ccc(Cc5ccn6ncnc6c5)c(C)c4)c3n2)CC1 [Compound 115]	0.97
C=CC(=O)N1CCN(c2cc3c(Nc4ccc(Oc5ccc6c(c5)ncn6C)c(C)c4)ncnc3cn2)CC1 [Compound 106, formic acid]	1.01
C=CC(=O)N1CCN(c2ccc3ncnc(Nc4ccc(Cc5ccn6ncnc6c5)c(C)c4)c3n2)CC1(C)C [Compound 131]	1.30
C=CC(=O)N1CCN(c2ccc3ncnc(Nc4ccc(Cc5ccn6ncnc6c5)c(C)c4)c3c2)C[C@H]1C [Compound 112]	1.45
C=CC(=O)N1CCN(c2cc3c(Nc4ccc(Cc5ccn6ncnc6c5)c(C)c4)ncnc3cn2)C[C@H]1C [Compound 52]	2.08
C=CC(=O)N1CCN(c2ccc3ncnc(Nc4ccc(Oc5ccn6ncnc6c5)c(C)c4)c3c2)CC1 [Compound 7]	0.94
C=CC(=O)N1CC2CCC(C1)N2c1ccc2ncnc(Nc3ccc(Oc4ccn5ncnc5c4)c(C)c3)c2n1 [Compound 17]	0.77
C=CC(=O)N1CCN(c2ccc3ncnc(Nc4ccc(Oc5ccc6c(c5)ncn6C)c(C)c4)c3c2F)C[C@H]1C [Compound 64]	1.09
C=CC(=O)N1CCN(c2ncc3ncnc(Nc4ccc(Cc5ccc6c(c5)ncn6C)c(C)c4)c3n2)CC1 [Compound 84]	1.03
C=CC(=O)N1CC2CC1CN2c1ccc2ncnc(Nc3ccc(Cc4ccn5ncnc5c4)c(C)c3)c2n1 (centres unmarked) [Compound 128]	0.87
C=CC(=O)N1CCN(c2ccc3ncnc(Nc4ccc(Cc5ccn6ncnc6c5)c(C)c4)c3c2)[C@@H](C)C1 [Compound 104]	1.81
C=CC(=O)N1CCN(c2ccc3ncnc(Nc4ccc(Oc5ccc6c(c5)ncn6C)c(C)c4)c3c2)[C@@H](C)C1 [Compound 89]	2.18
C=CC(=O)N1CC2CCC(C1)N2c1ccc2ncnc(Nc3ccc(Cc4ccn5ncnc5c4)c(C)c3)c2n1 [Compound 95]	0.84
C=CC(=O)N1CC[C@H](Nc2ccc3ncnc(Nc4ccc(Oc5ccn6ncnc6c5)c(C)c4)c3n2)C1 [Compound 43]	0.59
